system: NCI-H2087; experiment: relative viability (nuclei count vs DMSO), 5 days (fraction); higher = more cells survive; settings: first compound 8 µM
Assay Endpoint: relative viability
Reply with the value as a number alone.

Nc1cccc2c1CN(C1CCC(=O)NC1=O)C2=O (stereo not given) [Lenalidomide] + CC(=O)c1c(C)c2cnc(Nc3ccc(N4CCNCC4)cn3)nc2n(C2CCCC2)c1=O [Palbociclib] (partner 0.5 µM): 0.196
Nc1cccc2c1CN(C1CCC(=O)NC1=O)C2=O (stereo not given) [Lenalidomide] + C[C@@H](Oc1cc(-c2cnn(C3CCNCC3)c2)cnc1N)c1c(Cl)ccc(F)c1Cl [Crizotinib] (partner 1 µM): 0.928
Nc1cccc2c1CN(C1CCC(=O)NC1=O)C2=O (stereo not given) [Lenalidomide] + CC(=O)Nc1cccc(-n2c(=O)n(C3CC3)c(=O)c3c(Nc4ccc(I)cc4F)n(C)c(=O)c(C)c32)c1 [Trametinib] (partner 0.02 µM): 0.186
Nc1cccc2c1CN(C1CCC(=O)NC1=O)C2=O (stereo not given) [Lenalidomide] + Cc1cc(Nc2cc(N3CCN(C)CC3)nc(Sc3ccc(NC(=O)C4CC4)cc3)n2)n[nH]1 [Tozasertib] (partner 0.1 µM): 0.242

Proceeding to the next compound to report its relative viability.
[in] Query (compound): Nc1cccc2c1CN(C1CCC(=O)NC1=O)C2=O (stereo not given) [Lenalidomide] + CCNC(=O)c1noc(-c2cc(C(C)C)c(O)cc2O)c1-c1ccc(CN2CCOCC2)cc1 [Luminespib] (partner 0.01 µM) ; field requested: relative viability
[out] 0.169
